target: T1, native human ApoC3 (human, UniProt P02656 21-99, biotinylated in the captured-antigen assays (Tables 6 and 8); sites not stated); test: SPR, IgG captured via anti-human Fc, ApoC3 analyte 200 nM
T1 construct: also called nhuApoC3; native huApoC3
T1 sequence (P02656 21-99): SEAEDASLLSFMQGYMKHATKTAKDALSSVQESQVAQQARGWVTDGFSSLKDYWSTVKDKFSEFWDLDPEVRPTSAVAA
Result Type: koff

Binder	Result Type	Reported Measurement
29F10 IgG (antibody, V domains shown) VH: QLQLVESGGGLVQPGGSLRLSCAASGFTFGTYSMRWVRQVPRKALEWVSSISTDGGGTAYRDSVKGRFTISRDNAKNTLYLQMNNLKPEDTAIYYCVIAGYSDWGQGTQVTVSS VL: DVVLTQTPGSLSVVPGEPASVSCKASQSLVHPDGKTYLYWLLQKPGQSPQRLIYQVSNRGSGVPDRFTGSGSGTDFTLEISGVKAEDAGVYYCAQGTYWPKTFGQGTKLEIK	koff	0.000217 s⁻¹
29G02 IgG (antibody, V domains shown) VH: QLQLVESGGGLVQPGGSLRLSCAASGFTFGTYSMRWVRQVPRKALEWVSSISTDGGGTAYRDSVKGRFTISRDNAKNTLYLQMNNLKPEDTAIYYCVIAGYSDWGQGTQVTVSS VL: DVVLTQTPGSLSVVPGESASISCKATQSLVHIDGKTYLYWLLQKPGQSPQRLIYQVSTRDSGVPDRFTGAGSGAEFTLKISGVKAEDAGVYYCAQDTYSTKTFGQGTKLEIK	koff	0.000733 s⁻¹
5E5 WT IgG (antibody, V domains shown, Full-length IgG captured by an anti-human Fc antibody) VH: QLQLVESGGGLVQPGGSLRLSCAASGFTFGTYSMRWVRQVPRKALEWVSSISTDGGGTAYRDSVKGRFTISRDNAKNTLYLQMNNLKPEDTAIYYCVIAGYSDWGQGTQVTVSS VL: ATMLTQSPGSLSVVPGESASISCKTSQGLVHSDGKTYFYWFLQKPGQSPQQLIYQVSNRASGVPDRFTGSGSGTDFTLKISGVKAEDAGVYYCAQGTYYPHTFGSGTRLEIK	koff	0.000128 s⁻¹
29A06 IgG (antibody, V domains shown) VH: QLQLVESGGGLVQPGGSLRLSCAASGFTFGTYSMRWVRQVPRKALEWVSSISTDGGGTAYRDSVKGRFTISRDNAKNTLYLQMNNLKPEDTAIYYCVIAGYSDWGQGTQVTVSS VL: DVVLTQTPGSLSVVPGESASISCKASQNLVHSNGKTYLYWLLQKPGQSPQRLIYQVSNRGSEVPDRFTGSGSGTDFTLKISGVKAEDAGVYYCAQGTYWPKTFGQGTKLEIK	koff	0.00032 s⁻¹
